Target entity: CCDC6-RET (Homo sapiens (Human), UniProt P07949+Q16204)
Sequence (P07949 other isoform, or with tags, fused parts or gaps): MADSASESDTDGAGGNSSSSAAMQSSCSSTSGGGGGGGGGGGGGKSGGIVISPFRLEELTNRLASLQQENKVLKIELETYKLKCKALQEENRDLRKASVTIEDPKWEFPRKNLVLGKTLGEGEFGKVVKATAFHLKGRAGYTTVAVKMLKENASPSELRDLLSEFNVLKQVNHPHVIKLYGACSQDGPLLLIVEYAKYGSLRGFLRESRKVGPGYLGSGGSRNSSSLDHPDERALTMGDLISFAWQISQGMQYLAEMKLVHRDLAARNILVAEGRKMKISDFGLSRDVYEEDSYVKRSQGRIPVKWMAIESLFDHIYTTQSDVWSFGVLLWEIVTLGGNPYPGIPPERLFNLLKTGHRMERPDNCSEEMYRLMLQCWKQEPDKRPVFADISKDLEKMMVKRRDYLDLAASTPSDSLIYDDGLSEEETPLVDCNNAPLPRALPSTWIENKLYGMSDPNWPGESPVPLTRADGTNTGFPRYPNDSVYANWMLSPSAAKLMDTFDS
Assay protocol: HTRF kinase inhibition assay, CCDC6-RET
Format: biochemical
Test settings: HTRF method
Measured endpoint: IC50 (nM)
Give the quantity in nM, number only.

// query May I ask what IC50 has been recorded for `COc1ccc(C#CCN2C3CC2CN(c2ccc(-c4cc(-c5cnn(C)c5)cn5ncc(C#N)c45)cn2)C3)cn1` ?
// result 0.26

// query May I ask what IC50 has been recorded for `Cn1cc(-c2cc(-c3ccc(N4CCN(C(=O)C#Cc5ccccc5)CC4)nc3)c3c(C#N)cnn3c2)cn1` ?
// result 0.87

// query May I ask what IC50 has been recorded for `COc1cncc(C#CCN2C3CC2CN(c2ccc(-c4cc(-c5cnn(C)c5)cn5ncc(C#N)c45)cn2)C3)c1` ?
// result 0.16

// query May I ask what IC50 has been recorded for `C#Cc1cccc(C(=O)NC2(C)CCN(c3ccc(-c4cc(-c5cnn(C)c5)cn5ncc(C#N)c45)cn3)CC2)c1` ?
// result 0.6

// query May I ask what IC50 has been recorded for `C#Cc1ccc(C(=O)N2CCN(c3ccc(-c4cc(-c5cnn(C)c5)cn5ncc(C#N)c45)cn3)CC2)cc1` ?
// result 0.8

Where these numbers come from: patent US12209085B2
